- PROCEDURE TEXT: Solubility data of acadesine in injectable solution
- Format: physicochemical
- CONDITION NOTES: Room temperature; injectable solution pH 7.2-8.0; read-out: solubility data supports

COMPOUND: NC(=O)c1ncn([C@@H]2O[C@H](CO)[C@@H](O)[C@H]2O)c1N [Acadesine]
solubility, mg/mL: 60

###

- PROCEDURE TEXT: Solubility data of acadesine in injectable solution
- Format: physicochemical
- CONDITION NOTES: Room temperature; injectable solution pH 6.0-8.0 (with antioxidant); read-out: solubility data supports
MEASURED ENDPOINT: solubility (mg/mL)

SMI: NC(=O)c1ncn([C@@H]2O[C@H](CO)[C@@H](O)[C@H]2O)c1N
MEASURED ENDPOINT: solubility
READOUT UNITS: mg/mL
ENDPOINT RESULT: 60
